# GI50 per entry
System: MDA-MB-231
Assay: NCI tumour cell line growth inhibition, 48 h
Active and inactive are the calls of the source. Rule as the data show it: active = GI50 up to about 1.1 µM and inactive = higher.
measuredEndpoint: GI50

molecule	studySystem	measuredEndpoint	readoutValue
CCOC(=O)CCC(NC(=O)Cc1ccc(Nc2nc3cc(F)c(F)cc3nc2C(=O)OCC)cc1)C(=O)OCC (stereo not drawn)	MDA-MB-231	GI50	41.8 µM (inactive)
CC(C)(C)OC(=O)N[C@H]1CCN(C2CCCCC2)C1=O	MDA-MB-231	GI50	> 100 µM (inactive)
COCC1OC(N2C(=O)NC(=O)[C@@H]3C=C4CCCCC4=C[C@@H]32)C(OC)C1OC (stereo partly drawn)	MDA-MB-231	GI50	> 100 µM (inactive)

###

# GI50 per entry
Test system: SN12C
Test: NCI tumour cell line growth inhibition, 48 h
The source made the active and inactive calls. Rule as the data show it: active = GI50 up to about 1.1 µM and inactive = higher.

chemicalSmiles	GI50
CCC(CC)n1c(C)nc2c1C(=O)c1ccccc1C2=O	46.3 µM (inactive)
N#CCCN(CCN(CCC#N)C(=O)Nc1ccccc1)C(=O)Nc1ccccc1	> 100 µM (inactive)
O=Cc1cc(O)ccc1Br	19.8 µM (inactive)
COc1ccc(CCc2ccc(O)c(C(=O)O)c2)cc1OC	> 100 µM (inactive)
Cc1ccc(/C=C(\NC(=O)c2ccccc2)c2nc3ccccc3[nH]2)cc1	61 µM (inactive)
Cc1ccc2ccc(=O)oc2c1	> 100 µM (inactive)
Nn1c(S)nnc1COc1cccc(OCc2nnc(S)n2N)c1	> 100 µM (inactive)

###

Tested on: HT-29
Test: NCI tumour cell line growth inhibition, 48 h
Calls of active or inactive are those of the source. Cut-off read from the data, not from the text of the source: active = GI50 up to about 1.1 µM and inactive = higher.
# GI50 per entry

compound	GI50
O=C1Oc2ccccc2C(=O)/C1=C\NC(=S)c1ccncc1	> 100 µM (inactive)
O=C(CCC(NC(=O)OCc1ccccc1)C(=O)OCc1ccccc1)Nc1cccc(OCc2ccccc2)c1 (stereo not given)	29.9 µM (inactive)
CCSC1=N/C(=C\c2ccco2)C(Cl)=N1	> 100 µM (inactive)
COc1nc(C(Cl)(Cl)Cl)c(Cl)c(OC)c1Cl [PENCLOMEDINE]	14.6 µM (inactive)
Cc1ccc(/C=C(\NC(=O)c2ccccc2)c2nc3ccccc3[nH]2)cc1	37.5 µM (inactive)

###

Test system: HOP-18
Test: NCI tumour cell line growth inhibition, 48 h
Active and inactive are the calls of the source. Rule as the data show it: active = GI50 up to about 1.1 µM and inactive = higher.
# GI50 per entry

compound	GI50
COc1ccc([C@H]2CC(=O)NCCCCN2)cc1	> 100 µM (inactive)
COc1ccc(/C=C/C(=O)c2sc(N)nc2C)cc1	> 100 µM (inactive)
COC(=O)C(C(=O)C(=O)Nc1ccc(C)cc1C)c1nc2ccc([N+](=O)[O-])cc2nc1O (configuration not stated)	> 100 µM (inactive)
CC1(C)OC2OC(COC(=O)C(c3ccccc3)c3ccccc3)C3OC(C)(C)OC3C2O1 (configuration not stated)	> 10 µM (inactive)
CC1COS(=O)O1 (configuration not stated)	> 100 µM (inactive)
CCCCCCCCCCCCNC(=S)OC	17 µM (inactive)
O=c1[nH]cnc2c(COCCCO)c[nH]c12	> 100 µM (inactive)
CN(C)NC(=O)/C(=C/c1ccc(Cl)cc1)NC(=O)c1ccccc1	> 100 µM (inactive)
CC(C)[C@H]1CO[C@@H]2O[C@H](C)CC(=O)N21	> 100 µM (inactive)
CC1(CO)OC(n2cnc3c(N)ncnc32)C(O)C1O (configuration not stated)	> 100 µM (inactive)
N#C/C(=C\c1ccc2ccccc2c1)c1ccccc1	22.1 µM (inactive)
CC(=O)OCC1OC(n2c(=O)[nH]c(=O)c3nn[nH]c32)C(OC(C)=O)C(OC(C)=O)C1OC(C)=O (configuration not stated)	76.7 µM (inactive)
Cn1c(=O)c2nc3sc4c(n3c2n(C)c1=O)C(=O)c1ccccc1C4=O	0.433 µM (active)
COc1cc(C2(C)SCCCS2)cc(OC)c1OC	> 100 µM (inactive)
Cc1ccc(S(=O)(=O)OCCOCCOCCOCCOCCOS(=O)(=O)c2ccc(C)cc2)cc1	65.3 µM (inactive)
COC(=O)C1=NC(=S)NC(c2ccccc2)C1c1nc2ccccc2o1 (configuration not stated)	> 50 µM (inactive)
O=C(CCCN1CCC(C(O)c2ccc(F)cc2)CC1)c1ccc(F)cc1 (configuration not stated)	66.8 µM (inactive)
COc1ccc(C(=O)c2c3cc(OC)c(OC)c(OC)c3cc[n+]2C)cc1	20.6 µM (inactive)
O=C1CCC(=O)c2c1c(O)c1ccncc1c2O	26.9 µM (inactive)
Cc1cc(N(CCC#N)CCC#N)ccc1/C=C1\N=C(c2cc([N+](=O)[O-])ccc2Cl)N(NC(=O)c2ccc(/N=C\c3ccc(N(CCC#N)S(C)(=O)=O)cc3C)cc2)C1=O	> 100 µM (inactive)
Oc1ccc(-c2n[nH]c(S)n2)cc1	> 100 µM (inactive)
COc1ccc2c(c1)OC[C@@H]1c3cc(O)c(OCc4ccccc4)cc3O[C@H]21	> 100 µM (inactive)

###

Test system: MDA-MB-231
Assay: NCI tumour cell line growth inhibition, 48 h
Calls of active or inactive are those of the source. Cut-off read from the data, not from the text of the source: active = GI50 up to about 1.1 µM and inactive = higher.
Possible outcomes: y for active, n for inactive

compound	classLabel
COc1cc(OC)c2c(C)cc(=O)oc2c1	n
COC(=O)C(C)(C)[C@@H]1OC(=O)N(S(=O)(=O)c2c(C)cc(C)cc2C)[C@H]1C(C)C	n
CC(C)(C)OC(=O)N1CCC2(CC1)C(=O)NCN2c1ccccc1	n
Cc1ccc(C2(O)c3ccccc3C(=O)N(C)C2(O)c2ccc(C)cc2)cc1 (configuration not stated)	n
COc1ccc(C2CC(c3c(O)ccc4ccccc34)=NN2c2ccc([N+](=O)[O-])cc2[N+](=O)[O-])cc1OC (configuration not stated)	n
O=[N+]([O-])c1ccc(C2=NOC(c3ccccc3F)N2C23CC4CC(CC(C4)C2)C3)cc1 (configuration not stated)	n
O=C(CCCN1CCC(C(O)c2ccc(F)cc2)CC1)c1ccc(F)cc1 (configuration not stated)	n
CC(C)c1cc(C(C)C)c(P2(=O)CC3C(Cl)(Cl)C3(C)C2)c(C(C)C)c1 (configuration not stated)	n
O=C1CCCCC/C1=C\c1cccc(Cl)c1	n
FC(F)(F)c1ccc(/N=N/N2CCCC2)cc1	n
CN(C(=O)Cc1ccccc1)n1cn[n+](CC(=O)OC(C)(C)C)c1	n
CSC1(SC)N2Cc3ccccc3N=C2C1(c1ccccc1)c1ccccc1	n
COC(=O)/C=C\COCC1C2CCC(=O)C21 (configuration not stated)	n
Oc1cc(O)c2c(c1)O[C@H](c1cc(O)c(O)c(O)c1)[C@H](O)C2 [EPIGALLOCATECHIN]	n
CC(=N/NC(=S)N1CCCCC1)/C(=N\NC(=S)N1CCCCC1)c1ccccc1	n
C[C@]12CC[C@H](O)C=C1CC[C@@H]1[C@@H]2CC[C@]2(C)C(=N/O)/C(=C/c3ccncc3)C[C@@H]12	n
OC1C2CCC3C2CC(C(O)(c2ccccc2)c2ccccc2)C13 (configuration not stated)	n
Cc1cc(/N=C/c2c(CO)cnc(C)c2O)c(/N=C/c2c(CO)cnc(C)c2O)cc1C.[Zn+2]	n
CCOP(=O)(OCC)/C(C#N)=C\c1cccc2ccccc12	n
CC(=O)OCCn1cnc2nc(Nc3ccccc3)nc(Cl)c21	n
Cc1cccc(-c2nc3ccc([N+](=O)[O-])cc3c(=O)o2)c1	n
CCOC(=O)c1ccc(Nc2nc3ccccc3nc2C(=O)OCC)cc1	n
COc1ccc(Nc2nc(N)c(C(=O)c3c[nH]c4ccccc34)s2)cc1	n
C[N+](C)(C)c1ncnc2c1ncn2C1CC(O)C(CO)O1 (configuration not stated)	n
COc1ccc2c(c1)-c1oc3ccccc3c(=O)c1CO2	n
COc1cccc(CCCNC(=O)Cc2cc(OC)c(OC)cc2CO)c1	n
C/C(=N\NC(=S)Nc1ccccc1)c1nc2cccnc2[nH]1	y
CC(=O)c1ccc2c(c1)CC1(C2)Cc2cc3c(cc2C1=O)CCC3 (configuration not stated)	n
O=C1/C(=C/c2ccc([N+](=O)[O-])cc2)Sc2scc(-c3cccc([N+](=O)[O-])c3)[n+]21	n
O=C1NC(c2cccc3ccccc23)Nc2ccccc21 (configuration not stated)	y
CCNC(=S)N/N=C/c1ccccn1	n
Cc1c[nH]c(C(=O)O)c1-c1cccn1-c1ccc(Cl)cc1[N+](=O)[O-]	n
NS(=O)(=O)c1cc2c(cc1Cl)N=C(CCC(=O)O)NS2(=O)=O	n
CN(CC(=O)O)c1ncc2c(n1)-c1ccccc1OC2c1ccccc1 (configuration not stated)	n
COc1cccc(/C=N/C(/N=C/c2cccc(OC)c2O)c2cccc(OC)c2O)c1O	n
O=C1c2ccccc2C2(c3ccc(Cl)cc3)N[C@H]3CCCC[C@@H]3N12 (some centres not stated)	n
Nc1nc(-c2ccc3ccccc3c2)cc(-c2cc(-c3ccc4ccccc4c3)nc(N)n2)n1	n
COC(=O)C1=C(C)NC(C)=C([N+](=O)[O-])C1c1cccc(NO)c1 (configuration not stated)	n
C=C(CCOC)CCC1CCCCC/C1=N\N(C)C (configuration not stated)	n
NCc1ccc(C(=O)O)cc1 [AMINOMETHYLBENZOIC ACID]	n
CC(C)(C)c1cc(C(=O)Nc2cc(Br)c(Br)cc2S(N)(=O)=O)cc(C(C)(C)C)c1O	n
Cc1ccc(S(=O)(=O)N(CC(O)c2ccccc2)c2ccccc2F)cc1 (configuration not stated)	n
